Entry source: ChEMBL document CHEMBL1687913

- Experimental Details: Toxicity in human erythrocytes assessed as hemolysis at 1.5 uM after 40 mins
- Type: cell-based, Erythrocyte
- Experimental Parameters: read-out: Activity
Where a SMILES comes first, the peptide text is derived from it. [ ]: non-standard residue; d: D form. Orn = NCCC[C@H](N)C(=O)O
Consider the cut-off 4%. If the recorded hemolysis at 40 min, 1.5 µM is strictly smaller, the label is 1.0; if not, the label is 0.0.

### Prompt Dear colleague, could you confirm whether hemolysis at 40 min, 1.5 µM of CC[C@H](C)[C@H](NC(=O)[C@H](CCCCN)NC(=O)CNC(=O)[C@H](CC(C)C)NC(=O)[C@H](Cc1ccccc1)NC(=O)[C@H](CCCCN)NC(=O)[C@H](CO)NC(=O)[C@H](Cc1ccccc1)NC(=O)[C@H](Cc1c[nH]c2ccccc12)NC(=O)[C@H](CCC(N)=O)NC(=O)[C@@H](NC(=O)[C@@H](N)Cc1ccccc1)C(C)C)C(=O)N[C@@H](CC(C)C)C(N)=O (H-FVQWFSKFLGKIL-NH2) falls below 4%? Thanks.
### Response 1.0

### Prompt Now this one: "CC[C@@H](C)[C@@H](NC(=O)[C@@H](CCCNC(=N)N)NC(=O)CNC(=O)[C@@H](CC(C)C)NC(=O)[C@@H](Cc1ccccc1)NC(=O)[C@@H](CCCCN)NC(=O)[C@@H](CO)NC(=O)[C@@H](Cc1ccccc1)NC(=O)[C@@H](Cc1c[nH]c2ccccc12)NC(=O)[C@@H](CCC(N)=O)NC(=O)[C@H](NC(=O)[C@H](N)Cc1ccccc1)C(C)C)C(=O)N[C@H](CC(C)C)C(N)=O"
### Response 0.0

### Prompt Now this one: CC(C)C[C@H](NC(=O)[C@H](Cc1c[nH]c2ccccc12)NC(=O)[C@H](CCCNC(=N)N)NC(=O)CNC(=O)[C@H](CC(C)C)NC(=O)[C@H](CC(C)C)NC(=O)[C@H](CCCCN)NC(=O)[C@H](CO)NC(=O)[C@H](CC(C)C)NC(=O)[C@H](Cc1c[nH]c2ccccc12)NC(=O)[C@H](CCC(N)=O)NC(=O)[C@H](CC(C)C)NC(=O)[C@@H](N)CC(C)C)C(N)=O (H-LLQWLSKLLGRWL-NH2)
### Response 0.0

### Prompt Now this one: CC[C@H](C)[C@H](NC(=O)[C@H](CCCN)NC(=O)CNC(=O)[C@H](CC(C)C)NC(=O)[C@H](Cc1ccccc1)NC(=O)[C@H](CCCCN)NC(=O)[C@H](CO)NC(=O)[C@H](Cc1ccccc1)NC(=O)[C@H](Cc1c[nH]c2ccccc12)NC(=O)[C@H](CCC(N)=O)NC(=O)[C@@H](NC(=O)[C@@H](N)Cc1ccccc1)C(C)C)C(=O)N[C@@H](CC(C)C)C(N)=O (H-FVQWFSKFLG[Orn]IL-NH2)
### Response 1.0

----------
So I've got a bunch of compounds here, and I need their hemolysis at 40 min, 12 µM values.
- Experimental Details: Toxicity in human erythrocytes assessed as hemolysis at 12 uM after 40 mins
- Format: cell-based, Erythrocyte
- Experimental Parameters: read-out: Activity
Where a SMILES comes first, the peptide text is derived from it. [ ]: non-standard residue; d: D form. Orn = NCCC[C@H](N)C(=O)O

### Prompt Recorded hemolysis at 40 min, 12 µM of "CC[C@H](C)[C@H](NC(=O)[C@H](CCCNC(=N)N)NC(=O)CNC(=O)[C@H](CC(C)C)NC(=O)[C@H](Cc1ccccc1)NC(=O)[C@H](CCCCN)NC(=O)[C@H](CO)NC(=O)[C@H](Cc1ccccc1)NC(=O)[C@H](Cc1c[nH]c2ccccc12)NC(=O)[C@H](CCC(N)=O)NC(=O)[C@@H](NC(=O)[C@@H](N)Cc1ccccc1)C(C)C)C(=O)N[C@@H](CC(C)C)C(N)=O" , please.
### Response 92%

### Prompt Now this one: "CC[C@@H](C)[C@@H](NC(=O)[C@H](N)CC(C)C)C(=O)N[C@H](CCCNC(=N)N)C(=O)NCC(=O)N[C@H](CC(C)C)C(=O)N[C@H](Cc1ccccc1)C(=O)N[C@H](CCCCN)C(=O)N[C@H](CO)C(=O)N[C@H](Cc1ccccc1)C(=O)N[C@H](Cc1c[nH]c2ccccc12)C(=O)N[C@H](CCC(N)=O)C(=O)N[C@@H](C(=O)N[C@H](Cc1ccccc1)C(N)=O)C(C)C"
### Response 49%

### Prompt Now this one: CC[C@H](C)[C@H](NC(=O)[C@H](CCCNC(=N)N)NC(=O)CNC(=O)[C@H](CC(C)C)NC(=O)[C@H](Cc1ccccc1)NC(=O)[C@H](CCCCN)NC(=O)[C@H](CO)NC(=O)[C@H](Cc1ccccc1)NC(=O)[C@H](Cc1c[nH]c2ccccc12)NC(=O)[C@@H]1CCCN1C(=O)[C@@H](NC(=O)[C@@H](N)Cc1ccccc1)C(C)C)C(=O)N[C@@H](CC(C)C)C(N)=O (H-FVPWFSKFLGRIL-NH2)
### Response 42%

### Prompt Now this one: CC[C@H](C)[C@H](NC(=O)[C@H](CCCNC(=N)N)NC(=O)CNC(=O)[C@H](CC(C)C)NC(=O)[C@H](Cc1ccccc1)NC(=O)[C@H](CCCNC(=N)N)NC(=O)[C@H](CO)NC(=O)[C@H](Cc1ccccc1)NC(=O)[C@H](Cc1c[nH]c2ccccc12)NC(=O)[C@H](CCC(N)=O)NC(=O)[C@@H](NC(=O)[C@@H](N)Cc1ccccc1)C(C)C)C(=O)N[C@@H](CC(C)C)C(N)=O (H-FVQWFSRFLGRIL-NH2)
### Response 90%

### Prompt Now this one: CC[C@H](C)[C@H](NC(=O)[C@H](CCCN)NC(=O)CNC(=O)[C@H](CC(C)C)NC(=O)[C@H](Cc1ccccc1)NC(=O)[C@H](CCCCN)NC(=O)[C@H](CO)NC(=O)[C@H](Cc1ccccc1)NC(=O)[C@H](Cc1c[nH]c2ccccc12)NC(=O)[C@@H]1CCCN1C(=O)[C@@H](NC(=O)[C@@H](N)Cc1ccccc1)C(C)C)C(=O)N[C@@H](CC(C)C)C(N)=O (H-FVPWFSKFLG[Orn]IL-NH2)
### Response 12%
